We begin with a simple list: items and their reported kon.
- experimental_system: C52Hg Brazilian variant (Acro) spike protein (SARS-CoV-2, UniProt P0DTC2 16-1213)
- test_name: SPR (Carterra LSA); […]; 1:1 model; […]
Form entry: value (M⁻¹ s⁻¹) — number only.

Antibody 1-10 (Fc fusion) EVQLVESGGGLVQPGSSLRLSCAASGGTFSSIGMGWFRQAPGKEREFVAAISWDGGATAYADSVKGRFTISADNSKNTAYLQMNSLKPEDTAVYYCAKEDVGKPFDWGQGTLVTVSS = 6400

Noted for Antibody 1-11 (Fc fusion) EVQLVESGGGLVQPGGSLRLSCAASGFTFDDYVMGWFRQAPGKEREFVAVISWTGESTLYADSVKGRFTISADNSKNTAYLQMNSLKPEDTAVYYCAAFDGYSGSDWGQGTLVTVSS : its kon reads 300000
